Assay: Probe fluorescence ratio response to arachidonic acid relative to ADIFAB2
Format: binding
Conditions: arachidonic acid; response relative to ADIFAB2
reported_property: DR/DR AA
Output: the number by itself.

Before answering, review these 2 worked examples.
INSERT INTO measurements (molecule, assay_result) VALUES
  ('18V 31A 55I 72A (protein, listed as Rattus norvegicus, PEPTIDE (1)...(131) wild-type rat intestinal fatty acid binding protein) AFDGTWKVDRNENYEKFVEKMGINVVKRKLAAHDNLKLTITQEGNKFTVKESSNIRNIDVVFELGVDFAYSAADGTELTGTWTMEGNKLVGKFKRVDNGKELIAVREISGNELIQTYTYEGVEAKRIFKKE', 0.989),
  ('36I1, 72A (protein, listed as Rattus norvegicus, PEPTIDE (1)...(131) wild-type rat intestinal fatty acid binding protein) AFDGTWKVDRNENYEKFMEKMGINVVKRKLGAHDNIKLTITQEGNKFTVKESSNFRNIDVVFELGVDFAYSAADGTELTGTWTMEGNKLVGKFKRVDNGKELIAVREISGNELIQTYTYEGVEAKRIFKKE', 1.01);

Then there is this molecule:
Record summary for 14S, 72A (protein, listed as Rattus norvegicus, PEPTIDE (1)...(131) wild-type rat intestinal fatty acid binding protein) AFDGTWKVDRNENSEKFMEKMGINVVKRKLGAHDNLKLTITQEGNKFTVKESSNFRNIDVVFELGVDFAYSAADGTELTGTWTMEGNKLVGKFKRVDNGKELIAVREISGNELIQTYTYEGVEAKRIFKKE : reported DR/DR AA = 0.46
